protocol_text: In vitro enzyme assay to detect hydrolysis of chlorophenol red-beta-D-[…] directly proportional to the number of Toxoplasma stably expressing beta-galactosidase
Format: functional, organism-based, Toxoplasma gondii
Design: scale not given: in the data most compounds retested in dose-response had high values
test_settings: 10 µM
About 440 (0.52%) of roughly 85,000 compounds showed an effect of 50% or more. What follows is part of a selection rich in strong results, with near analogues and random picks from the rest.
Catalogue of Percent Effect readings, one per entry.

compound	Percent Effect
Cn1c(CCN2CCN(c3ccc(O)cc3)CC2)nc2ccccc21	79.1%
O=C1C[C@H]2CC[C@@H](CN1)N2C1CSCCSC1	-1.323%
CN(C)c1ncc2c(n1)C1(CCN(CC3CC3)C1)COC2.O=C(O)C(F)(F)F (stereo not drawn)	-3.49%
O=C(O)C(F)(F)F.O=C(O)[C@]12CCCN(C3CCOC3)C[C@H]1CN(c1ncccn1)C2 (stereo partly drawn)	3.821%
c1nc(N2CCOCC2)nc2c1COCC21CCN(CC2CC2)C1 (stereo not drawn)	63.85%
O=C(N[C@H]1COC[C@@H]1N1CCCC1)c1c[nH]nc1C1CCCCC1	7.68%
CCC(O)CN1CCN(C(=O)Cc2cc(C)ccc2OC)CC1 (stereo not drawn)	16.53%
CO[C@H]1CCN(Cc2ccccn2)[C@@H]2CN(Cc3ccco3)C[C@H]12.O=C(O)C(F)(F)F.O=C(O)C(F)(F)F.O=C(O)C(F)(F)F	-1.554%
CCOC[C@@H]1CCC[C@@]12CN(Cc1cccnc1)CCO2	-14.2%
CC(C)CC(=O)NC1CC2(CCN(CCF)CC2)Oc2ccccc21.O=C(O)C(F)(F)F (stereo not drawn)	-26.74%
COCCN1CCC2(COCc3cnc(N4CCOCC4)nc32)C1.O=C(O)C(F)(F)F (stereo not drawn)	-0.4992%
CN1CCN2C(=O)N(C3CCCCC3)C[C@H]2C1	-2.107%
CO[C@H]1CCN(c2ncc(F)cn2)[C@@H]2CN(Cc3ccco3)C[C@H]12.O=C(O)C(F)(F)F.O=C(O)C(F)(F)F	10.96%

====

protocol_text: In vitro enzyme assay to detect hydrolysis of chlorophenol red-beta-D-[…] directly proportional to the number of Toxoplasma stably expressing beta-galactosidase
Type: functional, organism-based, Toxoplasma gondii
Set-up: scale not given: in the data most compounds retested in dose-response had high values
test_settings: 10 µM
Hit rate of the full screen: of about 85,000 compounds, about 440 (0.52%) showed an effect of 50% or more. The sample as a whole holds a higher share of strong results than the screen did.

compound	Percent Effect (%)
O=C(C[C@H]1[C@H]2CN(Cc3ccncc3)C[C@@H]12)N1CCCC1.O=C(O)C(F)(F)F.O=C(O)C(F)(F)F	-5.891
CC(=O)N1CCC2(CC1)c1ncc(-c3cccnc3)n1CCN2C	-29.38
O=C(C[C@@H]1COC[C@H]2CN(Cc3ccncc3)C[C@@H]12)N1CCCC1	95.78
CC[C@@H]1N(Cc2ccncc2)CCC[C@]12CCC(=O)N2C.O=C(O)C(F)(F)F.O=C(O)C(F)(F)F	-4.695
Fc1cnc(N2CCCC3(CCN(Cc4cccs4)C3)C2)nc1.O=C(O)C(F)(F)F.O=C(O)C(F)(F)F (stereo not drawn)	-7.824
C[S+](C)[c-]1c(=O)[nH]c(=O)n(CCc2ccc(F)cc2)c1=O	11.54
Cc1nc(CO[C@H]2CN(Cc3ccccn3)[C@@H]3CCCO[C@H]23)cs1.O=C(O)C(F)(F)F.O=C(O)C(F)(F)F	12.48
C[C@@H]1CN(Cc2ccsc2)C[C@]12CCN(Cc1cccnc1)C2=O.O=C(O)C(F)(F)F.O=C(O)C(F)(F)F	-1.478

====

protocol_text: In vitro enzyme assay to detect hydrolysis of chlorophenol red-beta-D-[…] directly proportional to the number of Toxoplasma stably expressing beta-galactosidase
Assay type: functional, organism-based, Toxoplasma gondii
Design: scale not given: in the data most compounds retested in dose-response had high values
test_settings: 50 µM
The campaign covered roughly 85,000 compounds. About 440 (0.52%) showed an effect of 50% or more. This excerpt belongs to a sample that is enriched for strong results.
readout_type: Percent Effect (%)

compound	unit_spec	result_value
O=C1NC[C@H]2NCCC[C@@H]12	%	-10.77
CN[C@@H]1CCO[C@H]1c1cccnc1	%	-18.11
OCC1CCC2(CCCC2)CN1 (configuration not stated)	%	23.34
CCN1CCN(Cc2nnnn2C2CC2)CC1	%	99.81
NCCc1ccc(F)cn1	%	2.533
CN1CCN(c2cccc(C#N)n2)CC1	%	4.938
CCC(C)Cn1nc(COC)oc1=O (configuration not stated)	%	3.972
